# procedureDetails: plasma levels of indoprofen in mice after oral gavage (HPLC-UV)
# Assay type: in vivo
# testConditions: mouse, plasma, oral suspension, 4 hours, mean and standard error, read-out: Plasma Level of Indoprofen
experimentalReadout: concentration at 4 h (ng/mL)
Kindly answer with a numeric value in ng/mL, unit omitted.

-- ask Dear colleague, please send me the reported concentration at 4 h for CC(C(=O)O)c1ccc(N2Cc3ccccc3C2=O)cc1 (stereo not shown) [indoprofen] when you can.
-- reply 1620

---

# procedureDetails: plasma levels of indoprofen in mice after oral gavage (HPLC-UV)
# Assay type: in vivo
# testConditions: mouse, plasma, oral suspension, 8 hours, mean and standard error, read-out: Plasma Level of Indoprofen
experimentalReadout: concentration at 8 h (ng/mL)
Kindly answer with a numeric value in ng/mL, unit omitted.

-- ask Dear colleague, please send me the reported concentration at 8 h for CC(C(=O)O)c1ccc(N2Cc3ccccc3C2=O)cc1 (stereo not shown) when you can.
-- reply 890

Origin of measurements: patent US4316884A
